# subjectOfTest: PI3Kα (Homo sapiens)
# Sequence (P42336 whole entry): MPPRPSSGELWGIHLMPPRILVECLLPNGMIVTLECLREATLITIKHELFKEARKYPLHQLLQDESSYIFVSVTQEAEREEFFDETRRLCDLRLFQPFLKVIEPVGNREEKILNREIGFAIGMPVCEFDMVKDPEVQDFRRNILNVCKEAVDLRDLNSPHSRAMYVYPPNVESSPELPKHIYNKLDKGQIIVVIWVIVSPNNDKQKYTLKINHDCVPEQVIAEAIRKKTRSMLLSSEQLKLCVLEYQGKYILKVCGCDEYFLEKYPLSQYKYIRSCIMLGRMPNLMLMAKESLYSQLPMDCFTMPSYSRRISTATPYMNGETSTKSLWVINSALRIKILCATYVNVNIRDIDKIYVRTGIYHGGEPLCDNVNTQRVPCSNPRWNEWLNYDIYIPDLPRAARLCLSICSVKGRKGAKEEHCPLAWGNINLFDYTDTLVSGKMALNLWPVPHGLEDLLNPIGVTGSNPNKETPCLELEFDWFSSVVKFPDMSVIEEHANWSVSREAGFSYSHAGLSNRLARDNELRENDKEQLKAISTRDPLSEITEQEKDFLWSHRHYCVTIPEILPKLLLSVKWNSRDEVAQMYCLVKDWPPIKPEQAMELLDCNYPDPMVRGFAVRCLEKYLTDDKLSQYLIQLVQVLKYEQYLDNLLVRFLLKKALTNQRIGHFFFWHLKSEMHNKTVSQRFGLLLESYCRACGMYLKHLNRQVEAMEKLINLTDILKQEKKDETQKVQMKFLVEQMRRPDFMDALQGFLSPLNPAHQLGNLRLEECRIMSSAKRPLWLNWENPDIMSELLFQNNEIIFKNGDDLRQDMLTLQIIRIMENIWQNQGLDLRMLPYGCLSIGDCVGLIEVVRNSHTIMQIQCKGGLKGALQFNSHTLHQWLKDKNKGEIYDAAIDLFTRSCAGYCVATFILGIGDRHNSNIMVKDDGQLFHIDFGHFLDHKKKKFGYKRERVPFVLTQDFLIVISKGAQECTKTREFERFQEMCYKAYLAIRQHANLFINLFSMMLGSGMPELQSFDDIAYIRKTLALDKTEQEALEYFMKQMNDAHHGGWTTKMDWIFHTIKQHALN
# Sequence (P27986 whole entry partner): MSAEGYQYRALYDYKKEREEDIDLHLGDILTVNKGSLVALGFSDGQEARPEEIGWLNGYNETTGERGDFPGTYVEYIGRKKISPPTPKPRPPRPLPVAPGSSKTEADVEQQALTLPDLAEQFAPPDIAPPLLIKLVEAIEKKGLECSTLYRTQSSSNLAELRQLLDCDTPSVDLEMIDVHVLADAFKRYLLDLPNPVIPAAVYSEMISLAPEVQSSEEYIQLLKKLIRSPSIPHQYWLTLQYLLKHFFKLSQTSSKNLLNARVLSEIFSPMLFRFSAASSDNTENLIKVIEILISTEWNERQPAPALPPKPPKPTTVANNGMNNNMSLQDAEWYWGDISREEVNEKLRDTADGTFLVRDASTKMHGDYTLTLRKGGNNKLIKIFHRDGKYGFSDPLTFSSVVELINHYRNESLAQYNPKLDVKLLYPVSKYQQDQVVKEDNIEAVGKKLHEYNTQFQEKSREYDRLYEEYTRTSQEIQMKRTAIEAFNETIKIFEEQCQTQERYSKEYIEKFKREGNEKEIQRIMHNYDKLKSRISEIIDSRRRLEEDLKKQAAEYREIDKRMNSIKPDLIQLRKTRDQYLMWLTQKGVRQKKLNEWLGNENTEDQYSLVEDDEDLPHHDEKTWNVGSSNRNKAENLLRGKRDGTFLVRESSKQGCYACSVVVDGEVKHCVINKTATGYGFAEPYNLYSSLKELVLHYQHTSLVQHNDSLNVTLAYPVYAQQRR
# assayText: Z'-LYTE / Adapta biochemical kinase assay, PI3Kα
# runParameters: concentration of 100 nM/liter; read-out: Percent Inhibition of target enzymes, PI3K A
I'd appreciate it if you could supply inhibition at 0.1 µM values for the items below.

>  <compound>
Cc1ncc(-c2ccc3ncnc(Nc4cccc(Cl)c4F)c3c2)cc1NS(C)(=O)=O [Compound 1]

>  <measure>
inhibition at 0.1 µM

>  <obsValue>
80 to 90%

$$$$
>  <compound>
COc1ncc(-c2ccc3ncnc(Nc4cccc(Cl)c4F)c3c2)cc1NS(C)(=O)=O [Compound 2]

>  <measure>
inhibition at 0.1 µM

>  <obsValue>
> 90%

$$$$
>  <compound>
CS(=O)(=O)Nc1cc(-c2ccc3ncnc(Nc4cccc(Cl)c4F)c3c2)cnc1Cl [Compound 6]

>  <measure>
inhibition at 0.1 µM

>  <obsValue>
> 90%

$$$$

Would you mind listing inhibition at 0.1 µM for each of the following compounds?
1. CS(=O)(=O)Nc1cc(-c2ccc3ncc(C#N)c(Nc4cccc(Cl)c4F)c3c2)cnc1Cl [Compound 10]
2. CS(=O)(=O)Nc1cncc(-c2ccc3ncnc(Nc4cccc(Cl)c4F)c3c2)c1 [Compound 3]

result:
["> 90%", "10 to 80%"]

* * *

# subjectOfTest: PI3Kβ (Homo sapiens, UniProt P42338)
# Sequence (P42338 whole entry): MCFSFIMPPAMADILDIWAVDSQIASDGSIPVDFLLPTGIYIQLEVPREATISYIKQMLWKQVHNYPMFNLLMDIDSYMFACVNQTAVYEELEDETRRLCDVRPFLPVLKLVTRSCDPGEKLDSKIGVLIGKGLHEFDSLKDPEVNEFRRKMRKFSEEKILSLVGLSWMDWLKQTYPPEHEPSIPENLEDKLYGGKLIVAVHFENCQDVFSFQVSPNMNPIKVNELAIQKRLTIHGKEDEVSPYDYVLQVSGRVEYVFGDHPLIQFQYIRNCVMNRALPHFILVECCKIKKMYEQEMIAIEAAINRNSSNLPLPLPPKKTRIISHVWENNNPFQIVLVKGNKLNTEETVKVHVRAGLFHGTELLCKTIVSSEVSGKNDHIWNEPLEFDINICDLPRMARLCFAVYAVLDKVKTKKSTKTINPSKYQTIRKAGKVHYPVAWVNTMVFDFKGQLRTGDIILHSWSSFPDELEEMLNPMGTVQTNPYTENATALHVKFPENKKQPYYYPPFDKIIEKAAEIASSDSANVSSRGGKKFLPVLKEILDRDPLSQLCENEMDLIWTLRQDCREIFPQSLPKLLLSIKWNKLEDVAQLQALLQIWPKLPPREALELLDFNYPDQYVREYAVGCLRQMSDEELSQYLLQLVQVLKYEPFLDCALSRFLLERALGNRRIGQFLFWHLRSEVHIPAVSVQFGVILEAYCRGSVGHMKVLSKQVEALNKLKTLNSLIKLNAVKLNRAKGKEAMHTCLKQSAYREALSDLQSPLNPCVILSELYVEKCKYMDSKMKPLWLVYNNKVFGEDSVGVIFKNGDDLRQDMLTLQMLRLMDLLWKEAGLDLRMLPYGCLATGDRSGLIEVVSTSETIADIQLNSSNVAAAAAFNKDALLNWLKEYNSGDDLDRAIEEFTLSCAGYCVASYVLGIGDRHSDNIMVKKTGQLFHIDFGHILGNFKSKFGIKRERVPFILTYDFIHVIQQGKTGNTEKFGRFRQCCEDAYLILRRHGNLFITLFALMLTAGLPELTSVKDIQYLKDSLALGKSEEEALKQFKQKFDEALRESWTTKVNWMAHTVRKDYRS
# Sequence (P27986 whole entry partner): as the sequence (P27986 whole entry partner) above
# assayText: Z'-LYTE / Adapta biochemical kinase assay, PI3Kβ
measure: IC50

query: Sample CS(=O)(=O)Nc1cc(-c2ccc3ncnc(Nc4cccc(Cl)c4F)c3c2)cnc1Cl [Compound 6] — what was its IC50?
result: 20 to 200 nM

* * *

# subjectOfTest: DNA-PK (Homo sapiens)
pIC50: −log10 of the molar value.
measure: pIC50

query: Returns the measured pIC50 for the input molecule. Input: `CS(=O)(=O)Nc1cc(-c2ccc3ncnc(Nc4cccc(Cl)c4F)c3c2)cnc1Cl`
result: ≥ 8.70

* * *

# subjectOfTest: P13Kγ (Homo sapiens, UniProt P48736)
measure: IC50

query: Item: `CS(=O)(=O)Nc1cc(-c2ccc3ncnc(Nc4cccc(Cl)c4F)c3c2)cnc1Cl` Test system: P13Kγ (Homo sapiens, UniProt P48736) Read-out: IC50 Value: ?
result: ≤ 2 nM

* * *

# subjectOfTest: DNA-PK (Homo sapiens)
# assayText: Z'-LYTE / Adapta biochemical kinase assay, DNA-PK
# runParameters: concentration of 100 nM/liter; read-out: Percent Inhibition of target enzymes, DNA-PK
measure: inhibition at 0.1 µM

Here is how some compounds turned out for inhibition at 0.1 µM.
>  <compoundStructure>
Cc1ncc(-c2ccc3ncnc(Nc4cccc(Cl)c4F)c3c2)cc1NS(C)(=O)=O

>  <subjectOfTest>
DNA-PK (Homo sapiens)

>  <measure>
inhibition at 0.1 µM

>  <obsValue>
> 90%

$$$$
>  <compoundStructure>
CS(=O)(=O)Nc1cncc(-c2ccc3ncnc(Nc4cccc(Cl)c4F)c3c2)c1

>  <subjectOfTest>
DNA-PK (Homo sapiens)

>  <measure>
inhibition at 0.1 µM

>  <obsValue>
80 to 90%

$$$$
>  <compoundStructure>
CS(=O)(=O)Nc1cc(-c2ccc3ncc(C#N)c(Nc4cccc(Cl)c4F)c3c2)cnc1Cl

>  <subjectOfTest>
DNA-PK (Homo sapiens)

>  <measure>
inhibition at 0.1 µM

>  <obsValue>
> 90%

$$$$
>  <compoundStructure>
CS(=O)(=O)Nc1cc(-c2ccc3ncnc(Nc4cccc(Cl)c4F)c3c2)cnc1Cl

>  <subjectOfTest>
DNA-PK (Homo sapiens)

>  <measure>
inhibition at 0.1 µM

>  <obsValue>
> 90%

$$$$

Please turn your attention to the following entry.
query: State the recorded inhibition at 0.1 µM for this entry: `COc1ncc(-c2ccc3ncnc(Nc4cccc(Cl)c4F)c3c2)cc1NS(C)(=O)=O`
result: 80 to 90%

* * *

# subjectOfTest: HER2 (Homo sapiens, UniProt P04626)
measure: IC50

query: Need IC50 of `CS(=O)(=O)Nc1cc(-c2ccc3ncnc(Nc4cccc(Cl)c4F)c3c2)cnc1Cl` , thanks.
result: > 200 nM

* * *

# subjectOfTest: P13Kδ (Homo sapiens)
pIC50: −log10 of the molar value.
measure: pIC50

query: Please state recorded pIC50 (tested on P13Kδ (Homo sapiens)) of CS(=O)(=O)Nc1cc(-c2ccc3ncnc(Nc4cccc(Cl)c4F)c3c2)cnc1Cl [Compound 6]
result: ≥ 8.70

* * *

# assayText: Solubility assessment in aqueous media
# Assay type: physicochemical
# runParameters: fassgf or other biorelevant, kinetic from dmso stock, Simulated Intestinal Fluid (SIF), 25° C.
measure: solubility at 2 h

query: Would you kindly share the measured solubility at 2 h for CS(=O)(=O)Nc1cc(-c2ccc3ncnc(Nc4cccc(Cl)c4F)c3c2)cnc1Cl [Compound 6] ?
result: 5 to 100 µM

* * *

# subjectOfTest: MTOR (Homo sapiens, UniProt P42345)
pIC50: −log10 of the molar value.
measure: pIC50

query: Data request, read-out pIC50, for CS(=O)(=O)Nc1cc(-c2ccc3ncnc(Nc4cccc(Cl)c4F)c3c2)cnc1Cl [Compound 6]
result: 7.70 to 8.70

* * *

# assayText: Metabolic stability in mouse liver microsomes
# Type: in vitro ADME
# runParameters: Mouse Liver Microsome (MLM)
measure: half-life at 1 µM

query: Could you share which half-life at 1 µM value was measured for `CS(=O)(=O)Nc1cc(-c2ccc3ncnc(Nc4cccc(Cl)c4F)c3c2)cnc1Cl` ?
result: 10 to 100 min

* * *

# subjectOfTest: EGFR (Homo sapiens)
# Sequence (P00533 25-1210): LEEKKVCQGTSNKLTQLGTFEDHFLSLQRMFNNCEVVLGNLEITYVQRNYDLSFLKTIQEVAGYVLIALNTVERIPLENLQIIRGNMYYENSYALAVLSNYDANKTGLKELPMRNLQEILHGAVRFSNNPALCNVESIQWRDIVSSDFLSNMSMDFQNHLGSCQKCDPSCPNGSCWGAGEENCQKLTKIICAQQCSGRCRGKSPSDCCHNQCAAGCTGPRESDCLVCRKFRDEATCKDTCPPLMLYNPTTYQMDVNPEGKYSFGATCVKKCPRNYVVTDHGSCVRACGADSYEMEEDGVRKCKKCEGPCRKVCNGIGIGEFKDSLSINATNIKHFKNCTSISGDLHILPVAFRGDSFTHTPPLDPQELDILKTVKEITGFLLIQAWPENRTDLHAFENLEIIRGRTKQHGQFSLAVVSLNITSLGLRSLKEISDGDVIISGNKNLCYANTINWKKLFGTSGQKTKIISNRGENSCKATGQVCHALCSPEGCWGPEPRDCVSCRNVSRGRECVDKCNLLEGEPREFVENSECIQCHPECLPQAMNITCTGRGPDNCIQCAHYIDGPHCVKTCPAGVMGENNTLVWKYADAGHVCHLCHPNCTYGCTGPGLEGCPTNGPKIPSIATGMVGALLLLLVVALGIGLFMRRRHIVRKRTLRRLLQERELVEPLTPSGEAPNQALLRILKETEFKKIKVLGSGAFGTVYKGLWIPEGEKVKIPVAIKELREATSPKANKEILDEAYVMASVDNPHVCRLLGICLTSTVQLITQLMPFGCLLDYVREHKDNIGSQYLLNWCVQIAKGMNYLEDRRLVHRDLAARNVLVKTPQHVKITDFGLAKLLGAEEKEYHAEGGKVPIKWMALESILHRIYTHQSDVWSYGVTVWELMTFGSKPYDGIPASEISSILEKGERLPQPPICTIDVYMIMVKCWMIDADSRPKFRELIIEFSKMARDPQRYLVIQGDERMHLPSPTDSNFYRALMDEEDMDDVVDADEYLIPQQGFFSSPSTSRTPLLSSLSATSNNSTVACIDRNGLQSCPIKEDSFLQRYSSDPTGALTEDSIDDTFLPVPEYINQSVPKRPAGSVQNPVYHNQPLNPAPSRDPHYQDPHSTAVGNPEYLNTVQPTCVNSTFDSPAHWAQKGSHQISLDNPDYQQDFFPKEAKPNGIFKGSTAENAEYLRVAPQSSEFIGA
pIC50: −log10 of the molar value.
measure: pIC50

query: Quick one: pIC50 for `CS(=O)(=O)Nc1cc(-c2ccc3ncnc(Nc4cccc(Cl)c4F)c3c2)cnc1Cl` ?
result: ≥ 8.70

* * *

# assayText: Solubility assessment in aqueous media
# Type: physicochemical
# runParameters: PBS pH 7.4, aqueous buffer, kinetic from dmso stock, pH 7.4 Buffer, 25° C.
measure: solubility at 2 h

query: Fill in the blank: the reported solubility at 2 h of `CS(=O)(=O)Nc1cc(-c2ccc3ncnc(Nc4cccc(Cl)c4F)c3c2)cnc1Cl` is ____.
result: 5 to 100 µM

* * *

# subjectOfTest: HER4 (Homo sapiens)
measure: IC50

query: I'm curious: which IC50 was measured for CS(=O)(=O)Nc1cc(-c2ccc3ncnc(Nc4cccc(Cl)c4F)c3c2)cnc1Cl [Compound 6] tested on HER4 (Homo sapiens)?
result: > 200 nM
